- System: K4 kissing-loop RNA reporter
- MEASUREMENT_NOTES: apparent KD of K4 kissing-loop reporter; higher = weaker reporter binding
- CONDITION_PARAMETERS: Eterna round: R107; input ligand: none
Kindly supply the reported apparent KD of K4 kissing-loop reporter values for the records listed here.
Respond with the bare value in nM.

Query: Which measured apparent KD of K4 kissing-loop reporter value corresponds to UGACUGGACUGAAGGAGCGCUGAAGGAGCGUAAGUAGUGAUGUUGCUUACAGGUAGGUCGCAGCAGGUAGGUCGCAGUCUAGUCU ?
Response: 56.6

Query: Would you mind telling me what apparent KD of K4 kissing-loop reporter value was observed for AGUAGGAAACUACAAUCCUCUCUUACUGAAGGAGCGCGUGAAAACGCAGGUAGGUCGCAGGAUUGGAGAGUGAUGUUCUCCUUAA [Ex Arginine A K4 17] ?
Response: 441

Query: GET /values?readout=apparent KD of K4 kissing-loop reporter&item= AAUUUAUAUUUAUUCUUUAAAUGUUCAGAAGGAGCGUGAAUUAUCACAGGUAGGUCGCUGGGCUAGUGAUGUUGGCUAUAUACUA [whbob_Ex_Arginine_A_2t125]
Response: 162

Query: Which value of apparent KD of K4 kissing-loop reporter has been reported for GCCGUAGAUUGAAGGAGCGGACAGAUACGGGAAUCCAGUGAUGUUGGAAGGUAACUACUAGUCCAGGUAGGUCGCAAUCUACGGC in the records?
Response: 136

Query: Please report the recorded apparent KD of K4 kissing-loop reporter for UUUACCAGUGAUGUUGGCCUAGUAUUUACACGAGGACCGGUACGGCCGCCACUCGCAUUAUCGGACUUUGAUAAGCAUAUUAUAU [theeternabot_sameState_KL_Trp_A_28] .
Response: 318

Query: Item AAAGUUGAUGAGUUGGGUAUGUGUUCCGAAGGAGCGAGAAUUAUCUCAGGUAGGUCGCGGAACAUGAGUGAUGUUCAUGUAUAAA [KL-XArg-A7 #analogue] has what recorded apparent KD of K4 kissing-loop reporter?
Response: 365

Query: Entry under review: GGAUAGGAUAGAGGAUAUGGUAUAGGCAAGAAUAACUUGUCAUGUAAAUCCAUGAGGAGUGAUGUUCCAGAAGGCUGUCCUAUCG [MatMod 9 - Jieux - Exclusion - FMN B] . Reported apparent KD of K4 kissing-loop reporter?
Response: 231

Query: Form field: reported apparent KD of K4 kissing-loop reporter of ACAUGAGUGAUGUUCAUGUGGAGCAGGGUACGAGGACCGGUACGGCCGCCACUCGAGAGUUAUGACGAGUUAAUGGCAACGAUGU [KL-Tryp-A8 #analogue]
Response: 98.8

Query: Bench note: what apparent KD of K4 kissing-loop reporter did UGAGGAGAAUAUGAUACCAGCAGAGAGAGAGAGGAAGUAUAGUGAUGUUAUAUGAGAGAAUGCCCUUGGCAGCAUAAGAAGAAGG [SSTheophylB.B] show?
Response: 142

Query: Query (sequence): AAUAGAUCAUUAUAGUGAUAAAUGCCUGAUACCAGUGAGAGAUGGCACCCUUGGCAGCAGAGAUGAGUGAUGUUCAGACUGUAAA [theeternabot_sameState_KL_Theo_A_11] ; field requested: apparent KD of K4 kissing-loop reporter
Response: 104

Query: Field request: apparent KD of K4 kissing-loop reporter | item: AAAUAAAGCAGUCACCCAGUGAUGUUGGAAGGAGCGUGCGAAAGCACAGGUAGGUCGCCAAAACCUAAUACUGGCUGCUAAAUAA [#03 K4 Arginine A Exclusion]
Response: 285

Query: Name the reported apparent KD of K4 kissing-loop reporter value associated with the sequence GGGAGGAACUGAGGAUAUUCGAAGAAAUAUAGUGAUGUUAUGUAAGGAGGAGGAGGGAGGGAGGAAGGAGAAGGCAGAAGAGGAG [ExFMNB.A]
Response: 500

* * *

- Tested on: K4 kissing-loop RNA reporter
- MEASUREMENT_NOTES: apparent KD of K4 kissing-loop reporter; higher = weaker reporter binding
- CONDITION_PARAMETERS: Eterna round: R107; input ligand: FMN 200 uM
Could you label it yes (1) if measured apparent KD of K4 kissing-loop reporter is 100 nM or higher, and no (0) otherwise?

Query: Hi team, for GCAGUGAUGUUGCGGAUGUACAGUGGAGUGCGAGGACCGGUACGGCCGCCACUCGUACAGAACAAGCUAAUACAUCGAUAGGUGA [XI] , is the recorded apparent KD of K4 kissing-loop reporter at or above 100 nM?
Response: yes (1)

Query: // inclusive: apparent KD of K4 kissing-loop reporter at least 100 nM? input: UACAAACGUAGUGAUGUUACGUACUCUGAUACCAGACAAGUGUAAGUCCCUUGGCAGCAGUCAUUUUGCUUAUUAUUUUCUCAAA [JR_ExcTheophyA_Sub019]
Response: no (0)

Query: Reported apparent KD of K4 kissing-loop reporter reaches at least 100 nM for AACUAUUAAUGAAUUACAUUUUAUUUUUCUCGAGGACCGGUACGGCCGCCACUCGUACUAUAGUGAUGUUAUAGAUAAGUCCUAA [JR_ExcTryptoA_Sub021] ?
Response: yes (1)

Query: Does the sequence GGUAGCGCUAGAGAUACCAGUCAUAUCGCUCUGGAGUGAUGUUCCGGAACGUGCGGAGAAGACCCUUGGCAGCUCAUGACGGUGU [Exclusion Theophylline B GF 4] have recorded apparent KD of K4 kissing-loop reporter that is 100 nM or more?
Response: yes (1)

Query: Determine whether this sequence has apparent KD of K4 kissing-loop reporter no lower than 100 nM: AAGCAGUCCCUUGUAGUCAUCGAAGAUGAACGAGGACCGGUACGGCCGCCACUCGGAGUGAUGUUCCGAAGGCUGCAAAAUAAAA [MatMod 19 - Jieux - Exclusion - Tryptophan A]
Response: yes (1)

* * *

- System: K4 kissing-loop RNA reporter;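 further: bound reporter read as fluorescence of individual clusters on recovered sequencing chips by microscopy, with normalized cluster intensities fitted with a binding model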
- MEASUREMENT_NOTES: apparent KD of K4 kissing-loop reporter; higher = weaker reporter binding
- CONDITION_PARAMETERS: Eterna round: R107; input ligand: arginine 13.2 mM
So basically: apparent KD of K4 kissing-loop reporter at 200 nM or higher? That is label 1. Lower than 200 nM? That is label 0.

Query: Threshold query (apparent KD of K4 kissing-loop reporter >= 200 nM) on AGUGUUAGGUUAGAUACCAGCCGUCCGUGGAUAACCCUCGGACCGCCAGUGAUGUUGGCAGGCCCUUGGCAGCUAACAGAACAGA [Beriisa]
Response: label 1

Query: Check the entry AGAACUGUCUUGGAUACCAGUGAUGUUGGUAUCGAUGUGUGAGUGCAAAGCGUCCCACAUCGCCCUUGGCAGCUAAGACAGUUCA [Omei KL Theo B Exc A v5] : does apparent KD of K4 kissing-loop reporter equal or exceed 200 nM?
Response: label 1

Query: Dear colleague, could you confirm whether AACUCUCAGGCACCCGAGUGAUGUUCGGGCCGAGGACCGGUACGGCCGCCACUCGGGCCUGAGAGAGGUUAUCAAAGAUAGCCAA [Omei KL Tryp A SS A v1] has apparent KD of K4 kissing-loop reporter at or above 200 nM?
Response: label 0

Query: Kindly determine if apparent KD of K4 kissing-loop reporter recorded for UAAGUGAUUCACAAGCUAGAGUUACUCGAAGGAGCGACGAAUUCGUCAGGUAGGUCGCGAGUGAUGUUCGCAUGCUCUAGCAAAU [AK1 Exc Arginine A] is above or exactly 200 nM.
Response: label 1

Query: Decide: apparent KD of K4 kissing-loop reporter of GGCAGUGAUGUUGCCAGUGGCAGAUUAGAAGGAGCGUGGUGAGACACAGGUAGGUCGCUAAUUGAAAUUGCUGUCACUAAAAUGC [#6] >= 200 nM?
Response: label 1

Query: Identify whether the reported apparent KD of K4 kissing-loop reporter of the following sequence is 200 nM or greater: GCCGUACGCAUGGAUACCAGUCUUUCACGACUGGGCAUGGAGUGAUGUUUCGUGAUGCUAGACCCUUGGCAGCCAUGCGUACGGC
Response: label 0

Query: I'd appreciate it if you could say whether GAUUGAGGAAACUCGAUCUUAUAUCCUAGGCAGGAUAUGCGGAAACGCAGAAGGGCCACCUAGCAGUGAUGUUGCAAGCGAAAGC [Ex FMN A 5] has apparent KD of K4 kissing-loop reporter at least equal to 200 nM.
Response: label 1

Query: Would you say UGGGUGUAGUGAUGUUAUAUAGAGAGUGAUACCAGCGUAGAGAGAUGCCCUUGGCAGCAUAGAAGAGUAUCAUUGGAGGAGGAGG [ExTheophyl.Az] shows apparent KD of K4 kissing-loop reporter at minimum 200 nM?
Response: label 1

Query: For this sequence, is measured apparent KD of K4 kissing-loop reporter 200 nM or higher? CAACCGUAACACGAUACCAGCCUAGAAGCCAGUGAUGUUGGCCUUUUUUCGGAAAUGAAAGGCCCUUGGCAGCGUGGAUGAACUG [Dibibiquus]
Response: label 1

Query: // inclusive: apparent KD of K4 kissing-loop reporter at least 200 nM? input: ACCUGUAGCAGAAGGAGCGACAGUUAUUCUGAUAGAACUCUGAGUGAUGUUCAGAACAACUGUCAGGUAGGUCGCUGAUACAGGU [Arg B Ex t8a]
Response: label 1

Query: Does apparent KD of K4 kissing-loop reporter meet or surpass 200 nM for AGGCGACGCAAAGGAUAUCACGGUUUUCUAGUGAUGUUAGUCAAGACCGACCGAGAAAUCAGUGUUUGAGAAGGUUGAACGUCGC [theeternabot_sameState_KL_FMN_B_46] ?
Response: label 1

Query: Does UCGAACGAUGGAAGGAGCGCUCGUCAGCCCUGCGAGUGAUGUUCGUGGGUAAAUAGUCGCGAGCAGGUAGGUCGCCAUCUUGAGC [Zainsotima] have a reported apparent KD of K4 kissing-loop reporter of at least 200 nM?
Response: label 0

Query: Determine whether this sequence has apparent KD of K4 kissing-loop reporter no lower than 200 nM: AAUAAGGUCGCCGAUACCAGCGCAGGCAGAGCAAAGCUCUGCCAGGUAGUGAUGUUACCGCGCCCUUGGCAGCGGUGGCACGACC [Omei KL Theo B SS C v2]
Response: label 1

Query: Assess whether reported apparent KD of K4 kissing-loop reporter for UGAUAGGACAGAAGGAGCGGAAGUGAUGUUUCCAAAAGGUAAAGGUGUCAAAAGACACCCUUCCAGGUAGGUCGCUGUCCUAUCU [ArgBX 12 #Palindromic #SwitchBubble #StaticStem] sits at 200 nM or higher.
Response: label 0

Query: Dear colleague, could you confirm whether GUAGCACUCGGUAGUGAUGUUAUCGAGGACAAGGAUAUCAUCUCAAUGAGAAGGUGUCCUUGAUAACAGCUACGGGAAUAUCCCA [Omei KL FMN A Exc D v4] has apparent KD of K4 kissing-loop reporter at or above 200 nM?
Response: label 0

Query: Tell me whether apparent KD of K4 kissing-loop reporter is at least 200 nM here: GUAUCGCUAGGAGGAUAUUCCGUUUUUCAUAGCAAUGGCUAUGCGGAGUGAUGUUCCGAUUUACCGGAAGAAGGCCUAGUGAUAC [FMN B 24]
Response: label 0

Query: Check if apparent KD of K4 kissing-loop reporter >= 200 nM (inclusive). Item: GUGAGGAGUGGUGUUGAUUAGGGAGCGGAAGGAGCGCCGAGGAAGGCAGGUAGGUCGCCGGAUUAUAGUGAUGUUAUGAAGAGGG [ExArg.K]
Response: label 1

Query: Textbook exercise: given the entry GUGAAGGAGCUGCAGUGAUGUUGCAGAGACUAGGAUAUCAGGAAACUGAGAAGGAGUCAACUCCUUCACCUAGACACUGCAGAAA [[F]''-[K1]-[K2]-[F1]-[F2]-[F2]'-[F1]'-[K]'_Design1] , state whether its apparent KD of K4 kissing-loop reporter is greater than or equal to 200 nM.
Response: label 0

Query: Dear colleague, could you confirm whether UUUCGGUUCUGAGGAUAUUCGGACAAAUAUAGUGAUGUUGUAUAAGGAGGAGGGUGUUGGCAGUGAGGAGAAGGCAGAAGAGGAU [ExFMNB.T] has apparent KD of K4 kissing-loop reporter at or above 200 nM?
Response: label 1

Query: Given the entry UGGGUGUAGUGAUGUUAUAUAGAGAGUGAUACCAGUUUAGAGAAGAACCCUUGGCAGCAUAGAAGAGUAUCAUUGGAGGAGGAGG [ExTheophyl.Av] , answer whether its apparent KD of K4 kissing-loop reporter meets or surpasses 200 nM.
Response: label 1

Query: apparent KD of K4 kissing-loop reporter >= 200 nM for ACCUUUUUUGCCAGUGAUGUUGGACAGGAAGGAGCGGGCAUAAGCCCAGGUAGGUCGCCUGUCAACUUUCUUAUAGCCCUAAGGU [KL-XArg-A17] ?
Response: label 1

Query: Reported apparent KD of K4 kissing-loop reporter reaches at least 200 nM for GAAAGAAAGAAUGAUACCAGACACCCGAGUGAUGUUCGGAGCAGAGUGAUGUUCUUAUAAGUCCCUUGGCAGCAUAAAAGAAAAG [whbob_SS_Theo_B_sa82] ?
Response: label 0

Query: Reported apparent KD of K4 kissing-loop reporter at or above 200 nM? UGUCAUUGGUCGGCCGCCACUCCAUAAUGAGUGAUGUUCUAAAAGACGGAUCGAAAGAUCUGUCGGAGGACCGGGACCGAUGACU [FiskerMod 5 - Jieux - Same State - Tryptophan B]
Response: label 1

Numbers sourced from the supplement of paper PMC9170038.
